- experimental-target: T1, human NK3R (human NKB receptor) (human, UniProt P29371 1-465)
- T1 sequence (looked up): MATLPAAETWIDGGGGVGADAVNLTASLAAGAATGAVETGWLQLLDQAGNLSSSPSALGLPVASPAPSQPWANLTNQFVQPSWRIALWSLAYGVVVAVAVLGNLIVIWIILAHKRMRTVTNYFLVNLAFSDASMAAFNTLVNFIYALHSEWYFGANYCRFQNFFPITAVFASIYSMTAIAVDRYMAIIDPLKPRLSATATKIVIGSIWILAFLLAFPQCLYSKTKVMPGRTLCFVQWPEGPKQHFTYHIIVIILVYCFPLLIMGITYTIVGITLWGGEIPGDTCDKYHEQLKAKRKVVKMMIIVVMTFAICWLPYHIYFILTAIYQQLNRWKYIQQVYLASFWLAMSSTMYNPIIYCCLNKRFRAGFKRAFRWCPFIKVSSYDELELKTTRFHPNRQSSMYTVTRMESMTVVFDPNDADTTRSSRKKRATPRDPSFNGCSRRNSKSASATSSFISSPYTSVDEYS
- procedure-text: cell-based or functional assay
*1 amine or outer side, *2 acyl side, *3 side chain or, on linkers, in order; H or OH if unused. Where no end group is shown, it is not given here. [ ]: non-standard residue; d: D form. Suc = O=C(CCC(=O)[*:2])[*:1]; NMeV = CN[C@H](C(=O)O)C(C)C
reported-metric: EC50, SRE reporter gene that follows PKC activation, transfected COS-7 cells (nM)

binder="EMHDIFVGLM-NH2 [Zebrafish Tac3a peptide, neurokinin Ba (EMHDIFVGLM-NH2)]" numeric_value=0.49
binder="Suc-DIF[NMeV]GLM-NH2 (SMILES CC[C@H](C)[C@H](NC(=O)[C@H](CC(=O)O)NC(=O)CCC(=O)O)C(=O)N[C@@H](Cc1ccccc1)C(=O)N(C)[C@H](C(=O)NCC(=O)N[C@@H](CC(C)C)C(=O)N[C@@H](CCSC)C(N)=O)C(C)C) [NKBa-analog (Succ-Asp-Ile-Phe-N(Me)Val-Gly-Leu-Met-NH2)]" numeric_value=3.44
binder="XDSFXGLM (N-terminal succinyl (Succ) on Asp; N(Me)Val; C-terminal amide (-NH2)) [NKF-analog (Succ-Asp-Ser-Phe-N(Me)Val-Gly-Leu-Met-NH2)]" numeric_value=0.71
binder="YNDIDYDSFVGLM-NH2 [Zebrafish Tac3f peptide, neurokinin F (YNDIDYDSFVGLM-NH2)]" numeric_value=0.52
binder="STGINREAHLPFRPNMNDIFVGLL-NH2 [Zebrafish Tac3b peptide, neurokinin Bb (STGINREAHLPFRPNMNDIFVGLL-NH2)]" numeric_value=204
binder="Suc-DF[NMeV]GLM-NH2 [NKBb-analog (Succ-Asp-Phe-N(Me)Val-Gly-Leu-Met-NH2)]" numeric_value=0.94
